biological target: Coagulation Factor Xa, from uman plasma (Homo sapiens); assay: Enzymatic assay, coagulation factor Xa
Sequence (P00742 235-488 limits assumed): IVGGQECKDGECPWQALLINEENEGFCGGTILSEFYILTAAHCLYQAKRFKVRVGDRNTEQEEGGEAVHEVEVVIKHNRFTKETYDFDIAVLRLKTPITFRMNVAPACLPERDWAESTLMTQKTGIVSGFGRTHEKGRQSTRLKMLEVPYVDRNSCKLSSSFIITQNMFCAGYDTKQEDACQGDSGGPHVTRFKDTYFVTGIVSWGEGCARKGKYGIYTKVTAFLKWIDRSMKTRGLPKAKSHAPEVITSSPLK
Sequence (P00742 41-179 limits assumed): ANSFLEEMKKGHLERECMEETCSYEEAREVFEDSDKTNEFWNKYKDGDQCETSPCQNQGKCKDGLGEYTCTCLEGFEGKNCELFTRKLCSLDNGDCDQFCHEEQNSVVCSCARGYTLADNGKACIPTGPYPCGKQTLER
Where a SMILES comes first, the peptide text is derived from it.
Parameter Measured: FXa at 100 μM % (%)
Number in %, nothing else.

CCCC[C@@H]1NC(=O)[C@@H]2CCCN2C(=O)[C@H]2CCCN2C(=O)[C@H](Cc2ccc(O)cc2)NC(=O)[C@H](CCCCN)NC(=O)[C@H](CCC(N)=O)NC(=O)[C@@H]2CCCN2C(=O)[C@@H]2CCCN2C(=O)[C@H]([C@@H](C)CC)NC(=O)[C@H](CO)NC(=O)[C@H](C)NC(=O)[C@H]([C@@H](C)O)NC(=O)[C@H](CCC(=O)O)NC1=O [Ex. 104] (HELM PEPTIDE1{[Nle].E.T.A.S.I.P.P.Q.K.Y.[dP].P}$PEPTIDE1,PEPTIDE1,1:R1-13:R2$$$V2.0) on Coagulation Factor Xa, from uman plasma (Homo sapiens) gives FXa at 100 μM % = 6.2

----------
In this section we review reported Cathepsin G at 100 μM % values for a set of molecules.
molecular target: CathepsinG, from human neutrophils (Homo sapiens, UniProt P08311); assay: Enzymatic assay, cathepsin G; conditions: at 100 μM
Sequence (P08311 21-244): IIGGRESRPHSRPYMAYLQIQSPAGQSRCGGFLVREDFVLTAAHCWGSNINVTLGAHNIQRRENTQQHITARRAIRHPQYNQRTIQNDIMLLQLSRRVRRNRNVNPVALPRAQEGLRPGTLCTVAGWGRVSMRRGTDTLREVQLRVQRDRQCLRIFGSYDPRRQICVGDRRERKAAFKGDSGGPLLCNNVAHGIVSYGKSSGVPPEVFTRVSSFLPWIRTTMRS
Where a SMILES comes first, the peptide text is derived from it.
For clarity, give the value followed by its unit.

C[C@@H]1NC(=O)[C@H]([C@@H](C)O)NC(=O)[C@@H]2CSSC[C@H](NC(=O)[C@H](CCC(N)=O)NC(=O)[C@@H]3CCCN3C(=O)[C@@H]3CCCN3C(=O)[C@H](CC3CCCCC3)NC(=O)[C@H](CO)NC1=O)C(=O)N[C@@H](Cc1ccccc1)C(=O)N1CCC[C@@H]1C(=O)N1CCC[C@H]1C(=O)N[C@@H](CCc1ccccc1)C(=O)N2 [Ex. 155] (HELM PEPTIDE1{[O=C([C@H](CCc1ccccc1)N[*:1])[*:2]].C.T.A.S.[Cha].P.P.Q.C.F.[dP].P}$PEPTIDE1,PEPTIDE1,2:R3-10:R3|PEPTIDE1,PEPTIDE1,1:R1-13:R2$$$V2.0)	52 at 100%

Now look at this entry.
Note to self: Cathepsin G at 100 μM % recorded for CC[C@H](C)[C@@H]1NC(=O)[C@H](CO)NC(=O)[C@H](C)NC(=O)[C@H]([C@@H](C)O)NC(=O)[C@@H]2CSSC[C@H](NC(=O)[C@H](CCC(N)=O)NC(=O)[C@@H]3CCCN3C(=O)[C@@H]3CCCN3C1=O)C(=O)N[C@@H](CCC(N)=O)C(=O)N1CCC[C@@H]1C(=O)N1CCC[C@H]1C(=O)N[C@@H](CCc1ccccc1)C(=O)N2 [Ex. 143] (HELM PEPTIDE1{[O=C([C@H](CCc1ccccc1)N[*:1])[*:2]].C.T.A.S.I.P.P.Q.C.Q.[dP].P}$PEPTIDE1,PEPTIDE1,2:R3-10:R3|PEPTIDE1,PEPTIDE1,1:R1-13:R2$$$V2.0) was 28 at 100%

----------
system: Tryptase, from human lung; test: Enzymatic assay, tryptase; conditions: at 100 μM
Where a SMILES comes first, the peptide text is derived from it.
Parameter Measured: Tryptase at 100 μM %

Consider the worked cases shown below.
CC[C@H](C)[C@@H]1NC(=O)[C@@H]2CCCN2C(=O)[C@@H]2CCCN2C(=O)[C@H](CC(=O)O)NC(=O)[C@H](CO)NC(=O)[C@H](CCCCN)NC(=O)[C@H]([C@@H](C)O)NC(=O)[C@@H]2CSSC[C@H](NC1=O)C(=O)N[C@@H](Cc1ccccc1)C(=O)N1CCC[C@@H]1C(=O)N1CCC[C@H]1C(=O)N[C@@H](CCCNC(=N)N)C(=O)N2 [Ex. 75] (HELM PEPTIDE1{R.C.T.K.S.D.P.P.I.C.F.[dP].P}$PEPTIDE1,PEPTIDE1,2:R3-10:R3|PEPTIDE1,PEPTIDE1,1:R1-13:R2$$$V2.0)	0%
CC[C@H](C)[C@@H]1NC(=O)[C@@H]2CCCN2C(=O)[C@@H]2CCCN2C(=O)[C@H](CC(=O)O)NC(=O)[C@H](CO)NC(=O)[C@H](CCCCN)NC(=O)[C@H]([C@@H](C)O)NC(=O)[C@@H]2CSSC[C@H](NC1=O)C(=O)N[C@@H](Cc1ccc(O)cc1)C(=O)N1CCC[C@@H]1C(=O)N1CCC[C@H]1C(=O)N[C@@H](C1CCCCC1)C(=O)N2 [Ex. 40] (HELM PEPTIDE1{[O=C([C@@H](N[*:1])C1CCCCC1)[*:2]].C.T.K.S.D.P.P.I.C.Y.[dP].P}$PEPTIDE1,PEPTIDE1,2:R3-10:R3|PEPTIDE1,PEPTIDE1,1:R1-13:R2$$$V2.0)	33%
CC[C@H](C)[C@@H]1NC(=O)[C@@H]2CCCN2C(=O)[C@@H]2CCCN2C(=O)[C@H](CC(=O)O)NC(=O)[C@H](CO)NC(=O)[C@H](CCCCN)NC(=O)[C@H]([C@@H](C)O)NC(=O)[C@@H]2CSSC[C@H](NC1=O)C(=O)N[C@@H](CO)C(=O)N1CCC[C@@H]1C(=O)N1CCC[C@H]1C(=O)N[C@@H](Cc1ccccc1)C(=O)N2 [Ex. 4] (HELM PEPTIDE1{F.C.T.K.S.D.P.P.I.C.S.[dP].P}$PEPTIDE1,PEPTIDE1,2:R3-10:R3|PEPTIDE1,PEPTIDE1,1:R1-13:R2$$$V2.0)	0%

Now look at this entry.
Note to self: Tryptase at 100 μM % recorded for CCCC[C@@H]1NC(=O)[C@@H]2CCCN2C(=O)[C@@H]2CCCN2C(=O)[C@H](CC(=O)O)NC(=O)[C@H](CO)NC(=O)[C@H](CCCCN)NC(=O)[C@H]([C@@H](C)O)NC(=O)[C@@H]2CSSC[C@H](NC1=O)C(=O)N[C@@H](Cc1ccc(O)cc1)C(=O)N1CCC[C@@H]1C(=O)N1CCC[C@H]1C(=O)N[C@@H](C1CCCCC1)C(=O)N2 [Ex. 63] (HELM PEPTIDE1{[O=C([C@@H](N[*:1])C1CCCCC1)[*:2]].C.T.K.S.D.P.P.[Nle].C.Y.[dP].P}$PEPTIDE1,PEPTIDE1,2:R3-10:R3|PEPTIDE1,PEPTIDE1,1:R1-13:R2$$$V2.0) was 50%

----------
molecular target: Urokinase from human urine (Homo sapiens, UniProt P00749); assay: Enzymatic assay, urokinase
Where a SMILES comes first, the peptide text is derived from it.
Parameter Measured: Urokinase at 100 μM % (%)
Number in %, nothing else.

Note to self: Urokinase at 100 μM % recorded for CC[C@H](C)[C@@H]1NC(=O)[C@H](CO)NC(=O)[C@H](C)NC(=O)[C@H]([C@@H](C)O)NC(=O)[C@@H]2CSSC[C@H](NC(=O)[C@H](CCC(N)=O)NC(=O)[C@@H]3CCCN3C(=O)[C@@H]3CCCN3C1=O)C(=O)N[C@@H](CCC(N)=O)C(=O)N1CCC[C@@H]1C(=O)N1CCC[C@H]1C(=O)N[C@@H](CCc1ccccc1)C(=O)N2 [Ex. 143] (HELM PEPTIDE1{[O=C([C@H](CCc1ccccc1)N[*:1])[*:2]].C.T.A.S.I.P.P.Q.C.Q.[dP].P}$PEPTIDE1,PEPTIDE1,2:R3-10:R3|PEPTIDE1,PEPTIDE1,1:R1-13:R2$$$V2.0) was 8

----------
test system: Tryptase, from human lung; experiment: Enzymatic assay, tryptase; conditions: at 100 μM
Where a SMILES comes first, the peptide text is derived from it.
Parameter Measured: Tryptase At 100 μM % (%)
Number in %, nothing else.

CCCC[C@@H]1NC(=O)[C@@H]2CCCN2C(=O)[C@H]2CCCN2C(=O)[C@H](Cc2ccc(O)cc2)NC(=O)[C@@H]2CSSC[C@H](NC1=O)C(=O)N[C@@H]([C@@H](C)O)C(=O)N[C@@H](C)C(=O)N[C@@H](CO)C(=O)N[C@@H](CC1CCCCC1)C(=O)N1CCC[C@H]1C(=O)N1CCC[C@H]1C(=O)N[C@@H](CCC(N)=O)C(=O)N2 [Ex. 141] (HELM PEPTIDE1{[Nle].C.T.A.S.[Cha].P.P.Q.C.Y.[dP].P}$PEPTIDE1,PEPTIDE1,2:R3-10:R3|PEPTIDE1,PEPTIDE1,1:R1-13:R2$$$V2.0)	44.5

Now look at this entry.
Note to self: Tryptase At 100 μM % recorded for CCCCCCCC[C@@H]1NC(=O)[C@@H]2CCCN2C(=O)[C@H]2CCCN2C(=O)[C@H](Cc2ccc(O)cc2)NC(=O)[C@H]([C@@H](C)O)NC(=O)[C@H](CCC(N)=O)NC(=O)[C@@H]2CCCN2C(=O)[C@@H]2CCCN2C(=O)[C@H]([C@@H](C)CC)NC(=O)[C@H](CO)NC(=O)[C@H](C)NC(=O)[C@H]([C@@H](C)O)NC(=O)[C@H](CCC(N)=O)NC1=O [Ex. 154] (HELM PEPTIDE1{[CCCCCCCC[C@H](N[*:1])C(=O)[*:2]].Q.T.A.S.I.P.P.Q.T.Y.[dP].P}$PEPTIDE1,PEPTIDE1,1:R1-13:R2$$$V2.0) was 15
